- EXPERIMENTAL TARGET: T1, regulator of proteinase B (RopB), full-length, wild type (Streptococcus pyogenes (strain …))
- T1 chain: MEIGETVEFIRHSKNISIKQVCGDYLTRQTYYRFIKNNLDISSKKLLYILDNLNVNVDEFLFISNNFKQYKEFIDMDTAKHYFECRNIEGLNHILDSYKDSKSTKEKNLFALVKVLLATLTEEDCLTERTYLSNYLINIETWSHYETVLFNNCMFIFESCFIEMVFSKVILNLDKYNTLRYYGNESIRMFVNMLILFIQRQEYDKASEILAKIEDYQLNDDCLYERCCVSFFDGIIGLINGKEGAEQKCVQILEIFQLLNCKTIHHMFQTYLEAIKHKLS
- EXPERIMENT SUMMARY: FP; pH 5.5
Where no end group is shown, it is not given here. The star is where a group is joined. FITC = O=C1OC2(c3ccc(O)cc3Oc3cc(O)ccc32)c2ccc(NC(=S)*)cc21
EXPERIMENTAL ENDPOINT: pKd
For clarity, pKd is expressed as the negative log10 of concentration in mol/L.

Q: State the recorded pKd for this entry: {FITC}-MWLLLLFL [synthetic SIP peptide containing fluorescein modification at its amino-terminus (FITC-SIP)]
Ans: 8.27

Hello, the source for this data is paper PMC6565748, in case you need it.
